B1: Homeobox protein cut-like 1, residues 941 to 1008; numbered along this chain, P39880 (parent)
chain: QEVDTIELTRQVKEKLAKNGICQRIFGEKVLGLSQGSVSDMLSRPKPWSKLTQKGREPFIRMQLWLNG

- Variants of: B1
- protocol-notes: abundance fitness (aPCA) (normalised: wild type 0, dead -1); higher = more abundant; growth selection in yeast, the domain comes from the species named
- condition-info: Homo sapiens
Note to self: class = bucket of abundance fitness, per range 1 = under -0.2, range 2 = from -0.2 up to -0.1, range 3 = -0.1 and over

S39M    range 3
D4N    range 3
K46I    range 2

## Input Any idea which band Q23T is in?
## Output range 2

## Input Which class holds I6Y ?
## Output range 2

Measured values drawn from the Human Domainome abundance scans (Beltran et al. 2025) for this set.
